target: T1, in vitro misfolded/aggregated human SOD1 (metal-catalyzed oxidation) (human, UniProt P00441 2-154, oxidized by metal-catalyzed oxidation (4 mM ascorbic acid, 0.2 mM CuCl2, 48 hours at 37 C); residues not stated); test: direct ELISA, oxidized human SOD1 coated at 20 µg/ml
T1 construct: also called Oxidized SOD1; in vitro aggregated human SOD1 dimers
T1 sequence (P00441 2-154 limits assumed): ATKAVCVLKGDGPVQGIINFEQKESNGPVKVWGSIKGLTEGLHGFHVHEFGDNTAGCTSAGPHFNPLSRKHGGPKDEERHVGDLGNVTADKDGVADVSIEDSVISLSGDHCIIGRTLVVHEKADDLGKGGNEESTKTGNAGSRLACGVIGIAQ
MEASURE_NAME: EC50 (nM)
# output: bare number, implied unit nM

* NI-204.12G7 (antibody, human IgG1, V domains shown) VH: EVQLVESGAEVKKPGASVTLSCKASGYTFTAYYIHWVRQAREQGLEWMGVINPSTGTTFYAQNFPDRVSVTRDTSTSTVFMELHNLKSEDTAVYYCARAISEHGSGSYSPYYWGQGTLVTVSS VL: SYVLTQPPSVSVSLGQMAAITCSGEALPKKYGYWYQQKPGQVPVLLIYRDVERPSGVPDRFSGSSSGTMVTLTISGVQAEDEADYYCLSADSSGTWVFGGGTKLTVL | 0.6

Consider the binder NI-204.34A3 (antibody, human IgG1, V domains shown) VH: EVQLVESGGGLVKPGGSLRVSCDVSGQRLSKAWMNWVRQTPTRGLEWVGLIKRDADGGTTEFAAPVEGRFTISRDDIQNTMTLHMTRLRVDDTGVYYCVAGDIGCIKENCRWGEGTTVTVSS VL: SYELTQPPSVSVSPGQTARITCSGDALPTKFAFWYQQKSGQAPVLVIYEDDKRPSGIPQRFSGSSSGTTATLTISGAQEEDDADYYCYSKDSTNVERVFGTGTKLSVL and give its recorded EC50.
12
